ASSAY_SYSTEM: Bcl-xL, biotinylated (C-terminal avi-6His) (human, UniProt Q07817-1 1-233, biotin (enzymatic, BirA))
Sequence (Q07817 1-209): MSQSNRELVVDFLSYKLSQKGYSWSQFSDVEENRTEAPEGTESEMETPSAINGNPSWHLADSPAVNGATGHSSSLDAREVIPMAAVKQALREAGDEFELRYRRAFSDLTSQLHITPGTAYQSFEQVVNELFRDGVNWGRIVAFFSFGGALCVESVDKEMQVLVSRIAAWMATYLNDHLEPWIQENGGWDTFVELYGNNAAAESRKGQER
PROTOCOL_NOTES: BLI
READOUT_KIND: Kd (µM)

The following binders have reported results that may help.
BINDER	Kd, µM
B-ECM01 (enriched combinatorial mutant of B-CDP01) (designed binder) ADPKKILDKAKDQVENRVRELKQELERLYKEARKLDLTQEMRRKLHVRYIAAMLKAIAAILNAIAQAENEADKLKKAGLVNSQQLDELRRRLEELTEEAAQKAHDYGREFQLKLEY	7.8
F-ECM04 (enriched combinatorial mutant of F-CDP01) (designed binder) ADPKKVLDKAKDQAENRVRELKQKLEELYKEARKLDLTQEMRKKLEVAALGAVLAAHGDILNAIMQAKEEADKLKKAGLVNSQQLDELKRRLEELKEEALRKASDYGKEFHLKRRY	0.54

P = F-CDP01 (Bfl-1-targeting computationally designed protein) (designed binder) ADPKKVLDKAKDQAENRVRELKQKLEELYKEARKLDLTQEMRKKLQYAAIGAMLAAIGDILNAIMQAKQEADKLKKAGLVNSQQLDELKRRLEELKEEALRKAHDYGSEFYLKLEY
Q = B-CDP01 (Bcl-B-targeting computationally designed protein) (designed binder) ADPKKVLDKAKDQAENRVRELKQELERLYKEARKLDLTQEMRRKLEWRYIAAMLKAIGDILNAIAQAENEADKLKKAGLVNSQQLDELRRRLEELAKEAARKAHDYGREFQLKLEY
R = W-CDP03 (Bcl-w-targeting computationally designed protein) (designed binder) ADPKKVFDEAKDRAENNVRRLKQKLEELYKEARKKDLTQEEREKLKEKYKTAMAAAALAAIGDAFNALLKARKLHKNGQVNEQQLEELARRLQELAKEAFQKAKDYANEFEYKLEY
S = 2-CDP06 (Bcl-2-targeting Computationally Designed Protein) (designed binder) MADPKKVLDKAKDEAENRVRELKQKLEELYKEARKLDLTQEMRQELVDKARAASLQAIGDIFYAILRALAEAEKLKKAGLVNSQQLDELKRRLEELAEEARRKAEKLGDEFRLKLEYG
Qu. Highest Kd first, then in falling order down to the smallest. Lab note: record answer as labels in requested order.
Ans. S, Q, P, R
(S: 12 µM, Q: 0.02 µM, P: 0.011 µM, R: 0.007 µM)
